# Test system: 945468-187-T-J3-PDC spheroids with HUVEC/MSC, viability
# protocol.text: Anticancer human tumor 945468-187-T-J3-PDC patient-derived rectal carcinoma cell line growth inhibition [PI3K]
# test.settings: compound 1 µM; stronger effect = lower value
experimental.endpoint: viability, T/C

Illustrative cases are given below, each with its answer.
{"compound": "CC(C)NCC(C(=O)N1CCN(c2ncnc3c2C(C)CC3O)CC1)c1ccc(Cl)cc1 (stereo not given)", "target.or.test.system": "945468-187-T-J3-PDC spheroids with HUVEC/MSC, viability", "viability, T/C": "94.6% [middle of 4 runs]"}
{"compound": "COc1c(OCCCN2CCOCC2)ccc2c3n(c(=NC(=O)c4cnc(N)nc4)nc12)CCN3", "target.or.test.system": "945468-187-T-J3-PDC spheroids with HUVEC/MSC, viability", "viability, T/C": "16.4% [middle of 8 runs]"}
{"compound": "Cc1nc(NC(=O)N2CCCC2C(N)=O)sc1-c1ccnc(C(C)(C)C(F)(F)F)c1 (stereo not given)", "target.or.test.system": "945468-187-T-J3-PDC spheroids with HUVEC/MSC, viability", "viability, T/C": "103% [middle of 8 runs]"}

Measured on 945468-187-T-J3-PDC spheroids with HUVEC/MSC, viability, CC1(C)CCC(CN2CCN(c3ccc(C(=O)NS(=O)(=O)c4ccc(NCC5CCOCC5)c([N+](=O)[O-])c4)c(Oc4cnc5[nH]ccc5c4)c3)CC2)=C(c2ccc(Cl)cc2)C1 has a documented viability, T/C of 112% [middle of 4 runs]

Measured on 945468-187-T-J3-PDC spheroids with HUVEC/MSC, viability, Cn1nccc1Nc1nccc(-c2ccn(C(CO)c3ccc(Cl)c(F)c3)c(=O)c2)n1 (stereo not given) has a documented viability, T/C of 111% [middle of 4 runs]

---

# Test system: 945468-187-T-J3-PDC spheroids with HUVEC/MSC, viability
# protocol.text: Anticancer human tumor 945468-187-T-J3-PDC cell line growth inhibition [PI3K];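 further: spheroids exposed to agents for 7 days before viability read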
# test.settings: curve of first compound; second compound 1 µM
IC50 overview

{"molecule": "C#Cc1c(F)ccc2cc(O)cc(-c3ncc4c(N5CC6CCC(C5)N6)nc(OCC56CCCN5CC(F)C6)nc4c3F)c12 (configuration not stated) + COc1c(OCCCN2CCOCC2)ccc2c3n(c(=NC(=O)c4cnc(N)nc4)nc12)CCN3", "target.or.test.system": "945468-187-T-J3-PDC spheroids with HUVEC/MSC, viability", "IC50": "< 0.0316 µM"}
{"molecule": "CCCS(=O)(=O)Nc1ccc(F)c(C(=O)c2c[nH]c3ncc(-c4ccc(Cl)cc4)cc23)c1F + CC(Nc1ccc2c(c1)OCCn1cc(N3C(=O)OCC3C(F)F)nc1-2)C(N)=O", "target.or.test.system": "945468-187-T-J3-PDC spheroids with HUVEC/MSC, viability", "IC50": "3.27 µM"}
{"molecule": "CNC(=O)c1ccc(N2C(=S)N(c3ccc(C#N)c(C(F)(F)F)c3)C(=O)C2(C)C)cc1F + Cc1nc(NC(=O)N2CCCC2C(N)=O)sc1-c1ccnc(C(C)(C)C(F)(F)F)c1", "target.or.test.system": "945468-187-T-J3-PDC spheroids with HUVEC/MSC, viability", "IC50": "> 10 µM"}
{"molecule": "CCN1CCN(Cc2ccc(Nc3ncc(F)c(-c4cc(F)c5nc(C)n(C(C)C)c5c4)n3)nc2)CC1 + CC(Nc1ncnc2nc[nH]c12)c1cc2cccc(Cl)c2c(=O)n1-c1ccccc1", "target.or.test.system": "945468-187-T-J3-PDC spheroids with HUVEC/MSC, viability", "IC50": "> 1 µM"}
{"molecule": "CCCS(=O)(=O)Nc1ccc(F)c(C(=O)c2c[nH]c3ncc(-c4ccc(Cl)cc4)cc23)c1F + Cc1nc(NC(=O)N2CCCC2C(N)=O)sc1-c1ccnc(C(C)(C)C(F)(F)F)c1", "target.or.test.system": "945468-187-T-J3-PDC spheroids with HUVEC/MSC, viability", "IC50": "> 10 µM"}

The molecule identified as CC1(C)CCC(CN2CCN(c3ccc(C(=O)NS(=O)(=O)c4ccc(NCC5CCOCC5)c([N+](=O)[O-])c4)c(Oc4cnc5[nH]ccc5c4)c3)CC2)=C(c2ccc(Cl)cc2)C1 + COc1c(OCCCN2CCOCC2)ccc2c3n(c(=NC(=O)c4cnc(N)nc4)nc12)CCN3 registered its IC50 at < 0.0316 µM

The molecule identified as C#Cc1c(F)ccc2cc(O)cc(-c3ncc4c(N5CC6CCC(C5)N6)nc(OCC56CCCN5CC(F)C6)nc4c3F)c12 (configuration not stated) + CC(Nc1ncnc2nc[nH]c12)c1cc2cccc(Cl)c2c(=O)n1-c1ccccc1 registered its IC50 at > 10 µM

---

# Tested on: 945468-187-T-J3-PDC spheroids with HUVEC/MSC, viability
# protocol.text: Anticancer human tumor 945468-187-T-J3-PDC cell line growth inhibition [PI3K];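 further: spheroids exposed to agents for 7 days before viability read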
# test.settings: curve of first compound; second compound 1 µM
experimental.endpoint: IC50

Illustrative cases are given below, each with its answer.
{"compound": "CCCS(=O)(=O)Nc1ccc(F)c(C(=O)c2c[nH]c3ncc(-c4ccc(Cl)cc4)cc23)c1F + CC(Nc1ncnc2nc[nH]c12)c1cc2cccc(Cl)c2c(=O)n1-c1ccccc1", "experimental.endpoint": "IC50", "reading": "> 10 µM"}
{"compound": "CC1(C)CCC(Nc2ncc(C(F)(F)F)c(-c3c[nH]c4c(P(C)(C)=O)c(C#N)ccc34)n2)CN1 (stereo unspecified) + CC(Nc1ncnc2nc[nH]c12)c1cc2cccc(Cl)c2c(=O)n1-c1ccccc1", "experimental.endpoint": "IC50", "reading": "4.69 µM"}
{"compound": "C#Cc1c(F)ccc2cc(O)cc(-c3ncc4c(N5CC6CCC(C5)N6)nc(OCC56CCCN5CC(F)C6)nc4c3F)c12 (stereo unspecified) + CC(Nc1ccc2c(c1)OCCn1cc(N3C(=O)OCC3C(F)F)nc1-2)C(N)=O", "experimental.endpoint": "IC50", "reading": "2.76 µM"}

Measured on 945468-187-T-J3-PDC spheroids with HUVEC/MSC, viability, CC(C)n1nc(-c2ccc3oc(N)nc3c2)c2c(N)ncnc21 + CC(Nc1ncnc2nc[nH]c12)c1cc2cccc(Cl)c2c(=O)n1-c1ccccc1 has a documented IC50 of > 0.1 µM

Measured on 945468-187-T-J3-PDC spheroids with HUVEC/MSC, viability, CCN1CCN(Cc2ccc(Nc3ncc(F)c(-c4cc(F)c5nc(C)n(C(C)C)c5c4)n3)nc2)CC1 + CC(Nc1ccc2c(c1)OCCn1cc(N3C(=O)OCC3C(F)F)nc1-2)C(N)=O has a documented IC50 of 0.0295 µM

Measured on 945468-187-T-J3-PDC spheroids with HUVEC/MSC, viability, C[C@@H](NC(=O)c1ncnc(N)c1Cl)c1ncc(C(=O)Nc2cc(C(F)(F)F)c(Cl)cn2)s1 + CC(Nc1ccc2c(c1)OCCn1cc(N3C(=O)OCC3C(F)F)nc1-2)C(N)=O has a documented IC50 of > 10 µM

---

# Tested on: 945468-187-T-J3-PDC spheroids with HUVEC/MSC, viability
# protocol.text: Anticancer human tumor 945468-187-T-J3-PDC cell line growth inhibition [PI3K];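 further: spheroids exposed to agents for 7 days before viability read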;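 on viability, T/C: 100% = DMSO vehicle control viability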
# test.settings: second compound 0.316 µM; first compound 0.000316 µM; stronger effect = lower value
# Text: Combinatorial screen of targeted agents with the PI3K inhibitors inavolisib, alpelisib, duvelisib, and copanlisib in multi-cell type tumor spheroids A high-throughput screen of multi-cell type tumor spheroids was designed to identify active combinations of targeted small molecules and PI3K pathway inhibitors. […] Compounds. […] If the clinical Cmax for an agent had not been determined, the highest concentration tested was 10 microM. […]
experimental.endpoint: viability, T/C (%)
Response body: numeric value in %, unit text excluded.

Illustrative cases are given below, each with its answer.
{"molecule": "CC(C)n1nc(-c2ccc3oc(N)nc3c2)c2c(N)ncnc21 + COc1c(OCCCN2CCOCC2)ccc2c3n(c(=NC(=O)c4cnc(N)nc4)nc12)CCN3", "target.or.test.system": "945468-187-T-J3-PDC spheroids with HUVEC/MSC, viability", "output.unit": "%", "viability, T/C": 20.6}
{"molecule": "CC(=O)c1c(C)c2cnc(Nc3ccc(N4CCNCC4)cn3)nc2n(C2CCCC2)c1=O + CC(Nc1ccc2c(c1)OCCn1cc(N3C(=O)OCC3C(F)F)nc1-2)C(N)=O", "target.or.test.system": "945468-187-T-J3-PDC spheroids with HUVEC/MSC, viability", "output.unit": "%", "viability, T/C": 118}
{"molecule": "CC(=O)c1c(C)c2cnc(Nc3ccc(N4CCNCC4)cn3)nc2n(C2CCCC2)c1=O + CC(Nc1ncnc2nc[nH]c12)c1cc2cccc(Cl)c2c(=O)n1-c1ccccc1", "target.or.test.system": "945468-187-T-J3-PDC spheroids with HUVEC/MSC, viability", "output.unit": "%", "viability, T/C": 111}
{"molecule": "CC(=O)c1c(C)c2cnc(Nc3ccc(N4CCNCC4)cn3)nc2n(C2CCCC2)c1=O + Cc1nc(NC(=O)N2CCCC2C(N)=O)sc1-c1ccnc(C(C)(C)C(F)(F)F)c1", "target.or.test.system": "945468-187-T-J3-PDC spheroids with HUVEC/MSC, viability", "output.unit": "%", "viability, T/C": 103}
{"molecule": "CC(C)n1nc(-c2ccc3oc(N)nc3c2)c2c(N)ncnc21 + CC(Nc1ccc2c(c1)OCCn1cc(N3C(=O)OCC3C(F)F)nc1-2)C(N)=O", "target.or.test.system": "945468-187-T-J3-PDC spheroids with HUVEC/MSC, viability", "output.unit": "%", "viability, T/C": 103}

The molecule identified as Cn1ncnc1[C@H]1c2n[nH]c(=O)c3cc(F)cc(c23)N[C@@H]1c1ccc(F)cc1 + Cc1nc(NC(=O)N2CCCC2C(N)=O)sc1-c1ccnc(C(C)(C)C(F)(F)F)c1 registered its viability, T/C at 111

The molecule identified as Cn1ncnc1[C@H]1c2n[nH]c(=O)c3cc(F)cc(c23)N[C@@H]1c1ccc(F)cc1 + COc1c(OCCCN2CCOCC2)ccc2c3n(c(=NC(=O)c4cnc(N)nc4)nc12)CCN3 registered its viability, T/C at 20.3

The molecule identified as CC(=O)c1c(C)c2cnc(Nc3ccc(N4CCNCC4)cn3)nc2n(C2CCCC2)c1=O + COc1c(OCCCN2CCOCC2)ccc2c3n(c(=NC(=O)c4cnc(N)nc4)nc12)CCN3 registered its viability, T/C at 23

The molecule identified as CC(C)n1nc(-c2ccc3oc(N)nc3c2)c2c(N)ncnc21 + CC(Nc1ncnc2nc[nH]c12)c1cc2cccc(Cl)c2c(=O)n1-c1ccccc1 registered its viability, T/C at 99

The molecule identified as Cn1ncnc1[C@H]1c2n[nH]c(=O)c3cc(F)cc(c23)N[C@@H]1c1ccc(F)cc1 + CC(Nc1ncnc2nc[nH]c12)c1cc2cccc(Cl)c2c(=O)n1-c1ccccc1 registered its viability, T/C at 97.5

The molecule identified as CC(C)n1nc(-c2ccc3oc(N)nc3c2)c2c(N)ncnc21 + Cc1nc(NC(=O)N2CCCC2C(N)=O)sc1-c1ccnc(C(C)(C)C(F)(F)F)c1 registered its viability, T/C at 113

The measurements presented in this section are drawn from PubChem BioAssay AID1963968.
